I'd appreciate it if you could supply inhibition at 1.25 µg/mL values for the items below.
# Tested on: HIV-1 RF
# assay: Antiviral assay, Experimental Protocol I (compound added after infection)
# Assay type: cell-based
# run conditions: Human immunodeficiency virus 1, 240 h, 10% FCS, 1.25 μg/ml, p24 ELISA, read-out: % Inhibition (after day 10)
Answers are plain numbers, in %.

1) COc1cc(N=Nc2c(O)ccc3ccc(S(=O)(=O)O)cc23)c(OC)cc1N=Nc1c(S(=O)(=O)O)cc2cc(S(=O)(=O)O)cc(NC(=O)Cc3cccc4ccccc34)c2c1O | 28
2) COc1cc(N=Nc2c(S(=O)(=O)O)cc3cc(S(=O)(=O)O)cc(NC(=O)c4cc(Cl)ccc4Cl)c3c2O)c(OC)cc1N=Nc1c(S(=O)(=O)O)cc2cc(S(=O)(=O)O)cc(NC(=O)c3ccc(Cl)c(Cl)c3)c2c1O | 99

Determine from records and report inhibition at 1.25 µg/mL for `CCOc1cc(N=Nc2c(S(=O)(=O)O)cc3cc(S(=O)(=O)O)cc(NC(=O)c4cccc(Cl)c4Cl)c3c2O)c(OCC)cc1N=Nc1c(S(=O)(=O)O)cc2cc(S(=O)(=O)O)cc(NC(=O)c3ccc(Cl)cc3Cl)c2c1O`
100
